Values from patent US10202370B2

Biological target: c-kit WT (Homo sapiens (Human), UniProt P10721)
Sequence (P10721 26-976): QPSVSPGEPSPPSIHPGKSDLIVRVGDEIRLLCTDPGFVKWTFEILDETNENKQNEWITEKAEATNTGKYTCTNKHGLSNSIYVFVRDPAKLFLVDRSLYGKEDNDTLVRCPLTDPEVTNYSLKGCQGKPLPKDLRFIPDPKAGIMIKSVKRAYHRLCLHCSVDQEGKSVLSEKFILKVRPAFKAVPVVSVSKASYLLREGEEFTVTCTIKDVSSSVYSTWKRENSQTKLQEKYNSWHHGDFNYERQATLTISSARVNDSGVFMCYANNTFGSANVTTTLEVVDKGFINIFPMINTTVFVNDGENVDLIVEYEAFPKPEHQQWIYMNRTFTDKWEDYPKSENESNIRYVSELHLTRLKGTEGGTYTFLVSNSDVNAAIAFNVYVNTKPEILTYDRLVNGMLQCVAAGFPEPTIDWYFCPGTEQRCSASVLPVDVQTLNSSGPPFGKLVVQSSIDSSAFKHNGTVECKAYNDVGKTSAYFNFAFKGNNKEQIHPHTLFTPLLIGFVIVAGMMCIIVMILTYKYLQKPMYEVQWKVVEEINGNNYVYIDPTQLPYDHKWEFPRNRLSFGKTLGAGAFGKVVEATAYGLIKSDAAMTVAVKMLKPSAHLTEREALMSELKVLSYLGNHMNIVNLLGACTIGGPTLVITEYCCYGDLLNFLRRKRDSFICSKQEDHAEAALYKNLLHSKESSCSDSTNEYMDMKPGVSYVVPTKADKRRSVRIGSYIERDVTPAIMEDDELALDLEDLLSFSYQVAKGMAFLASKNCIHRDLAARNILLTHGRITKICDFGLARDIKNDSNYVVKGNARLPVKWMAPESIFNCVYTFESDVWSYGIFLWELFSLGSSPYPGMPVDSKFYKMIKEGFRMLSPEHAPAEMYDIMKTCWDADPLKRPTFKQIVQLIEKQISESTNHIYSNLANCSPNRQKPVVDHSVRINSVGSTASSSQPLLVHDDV
Test: Proliferation assay (CellTiter-Blue) on BaF3 Kit WT cell line
Conditions: BaF3 Kit WT cell line (murine Ba/F3 expressing Human Kit WT, with murine SCF), 48 hours
pIC50: −log10 of the molar value.
parameter: pIC50

Noted for Cc1cccc(-c2nc3cc(Nc4nc(-c5ccc(C#N)cc5)cs4)c(C)cc3n2C)c1 : its pIC50 reads ≥ 6.00

Noted for Cc1cc2nc(-c3ccc(CN4CCN(C)CC4)cc3)[nH]c2cc1Nc1ncc(-c2cccnc2)o1 : its pIC50 reads 5.00 to 6.00

Noted for Cc1cc2[nH]c(-c3cncn3C)nc2cc1Nc1nc(-c2ccncc2)cs1 : its pIC50 reads 5.00 to 6.00

Noted for Cc1cc2c(cc1Nc1nc(-c3ccncc3)cs1)nc(-c1cccc(OC(F)(F)F)c1)n2C : its pIC50 reads ≥ 6.00

Noted for Cc1cc2nc(-c3cc(C(C)(C)C)ccc3OCCN(C)C)[nH]c2cc1Nc1nccc(-c2cccnc2)n1 : its pIC50 reads 5.00 to 6.00

Noted for CCn1c(-c2cccc(C(F)F)c2)nc2cc(Nc3nc(-c4cccnc4)cs3)c(C)cc21 : its pIC50 reads ≥ 6.00

Noted for COc1cccc(-c2nc3cc(Nc4nc(-c5cccnc5)cs4)c(C)cc3[nH]2)c1 : its pIC50 reads ≥ 6.00

Noted for Cc1cc2c(cc1Nc1nc(-c3cccnc3)cs1)nc(-c1cc(F)cc(C(F)(F)F)c1)n2C : its pIC50 reads ≥ 6.00

Noted for FC(F)(F)c1cccc(-c2nc3cc(Nc4nc(-c5cccnc5)cs4)ccc3[nH]2)c1 : its pIC50 reads 5.00 to 6.00

Noted for Cc1cc2[nH]c(-c3cccc(C(C)(C)C)c3)nc2cc1Nc1nc(-c2ccncc2)cs1 : its pIC50 reads ≥ 6.00

Noted for Cc1cc2c(cc1Nc1nc(-c3ccc(C#N)cc3)cs1)nc(-c1cccc(C(F)(F)F)c1)n2C : its pIC50 reads ≥ 6.00

Noted for Cc1cc2nc(-c3cncc(C(F)(F)F)c3)[nH]c2cc1Nc1nc(-c2cccnc2)cs1 : its pIC50 reads ≥ 6.00

Noted for Cc1cc2nc(-c3cccc(OCCN(C)C)c3)[nH]c2cc1Nc1nccc(-c2cccnc2)n1 : its pIC50 reads 5.00 to 6.00

Noted for C#Cc1cccc(-c2nc3cc(Nc4nc(-c5cccnc5)cs4)c(C)cc3[nH]2)c1 : its pIC50 reads ≥ 6.00

Noted for Cc1cc2[nH]c(-c3cccc(C(C)C)c3)nc2cc1Nc1nc(-c2cccnc2)cs1 : its pIC50 reads ≥ 6.00

Noted for Cc1cc2nc(-c3ccc(C(F)(F)F)cc3)[nH]c2cc1Nc1nc(-c2ccc(C#N)cc2)cs1 : its pIC50 reads 5.00 to 6.00

Noted for Cc1cc2c(cc1Nc1nc(-c3ccncc3)cs1)nc(-c1ccc(CN3CCN(C)CC3)cc1)n2C : its pIC50 reads 5.00 to 6.00

Noted for Cc1cc2nc(-c3cccc(C(F)F)c3)n(C)c2cc1Nc1nc(-c2cccnc2)cs1 : its pIC50 reads 5.00 to 6.00

Noted for Cc1cc2nc(-c3cccc(Cl)c3)[nH]c2cc1Nc1nccc(-c2cccnc2)n1 : its pIC50 reads ≥ 6.00

Noted for Cc1cc2nc(-c3cccc(N4CCN(C)CC4)c3)[nH]c2cc1Nc1nccc(-c2cccnc2)n1 : its pIC50 reads 5.00 to 6.00

Noted for Cc1cc2c(cc1Nc1nc(-c3ccncc3)cs1)nc(-c1ccc(C(F)F)cc1)n2C : its pIC50 reads ≥ 6.00

Noted for C=CS(=O)(=O)Nc1cccc(-c2nc3cc(Nc4nc(-c5ccncc5)cs4)c(C)cc3n2C)c1 : its pIC50 reads 5.00 to 6.00
